Test: Selective depuration of isomer pairs from vole tissue, Example 4
Assay type: in vivo, meadow voles (Microtus penusylvanicus)
Conditions: vole, tissue, po; 2 days after dosing; 10 ppm pellets, 0.54 mg/kg of A-D mixture consumed; read-out: Amount of isomer pair recovered from the tissue
Method: This Example illustrates the selective depuration of the active ingredient of the invention compositions by meadow voles (Microtus penusylvanicus). Fasted wild voles were given pellets containing 10 ppm of mixture (approximately 1:1:1:1 by weight) of isomers A, B, C and D of brodifacoum until they had consumed 0.54 mg of active ingredient per kilogram of body weight. […]
value-kind: concentration at 48 h (ng/g)
Give the number; ng/g is assumed, so skip it.

Q: Record request: concentration at 48 h value, item O=c1oc2ccccc2c(O)c1[C@H]1C[C@@H](c2ccc(-c3ccc(Br)cc3)cc2)Cc2ccccc21 (relative stereo) [Isomers A and B, reference compound]
Ans: 114

Q: What do you have for O=c1oc2ccccc2c(O)c1[C@@H]1C[C@@H](c2ccc(-c3ccc(Br)cc3)cc2)Cc2ccccc21 (relative stereo) [Isomers C and D] ?
Ans: 24

###

Could you please report measured half-life for the items listed next?
experiment: Selective depuration of isomer pairs from vole tissue, Example 4; type: in vivo, meadow voles (Microtus penusylvanicus); settings: po, 0.54 mg/kg; vole tissue; calculated

Q: Entry under review: O=c1oc2ccccc2c(O)c1[C@H]1C[C@@H](c2ccc(-c3ccc(Br)cc3)cc2)Cc2ccccc21 (relative stereo) [Isomers A and B, reference compound] . Reported half-life?
Ans: > 336 h

Q: Thanks! And O=c1oc2ccccc2c(O)c1[C@@H]1C[C@@H](c2ccc(-c3ccc(Br)cc3)cc2)Cc2ccccc21 (relative stereo) [Isomers C and D] ?
Ans: ~24 h

###

experiment: Selective depuration of isomer pairs from vole tissue, Example 4; assay type: in vivo, meadow voles (Microtus penusylvanicus); conditions: vole, tissue, po; 3 days after dosing; 10 ppm pellets, 0.54 mg/kg of A-D mixture consumed; read-out: Amount of isomer pair recovered from the tissue
Consider the following molecules; for each one, report its concentration at 72 h.
Give the value, in units of ng/g, as a plain number.

Q: Find the recorded concentration at 72 h belonging to O=c1oc2ccccc2c(O)c1[C@@H]1C[C@@H](c2ccc(-c3ccc(Br)cc3)cc2)Cc2ccccc21 (relative stereo) [Isomers C and D] and report it.
Ans: 14

Q: What about this molecule? O=c1oc2ccccc2c(O)c1[C@H]1C[C@@H](c2ccc(-c3ccc(Br)cc3)cc2)Cc2ccccc21 (relative stereo) [Isomers A and B, reference compound]
Ans: 114

###

assay: Selective depuration of isomer pairs from vole tissue, Example 4; type: in vivo, meadow voles (Microtus penusylvanicus); details: vole, tissue, po; 1 day after dosing; 10 ppm pellets, 0.54 mg/kg of A-D mixture consumed; read-out: Amount of isomer pair recovered from the tissue
value-kind: concentration at 24 h
Quick note: number first, unit second.

Q: Name the reported concentration at 24 h value associated with the compound O=c1oc2ccccc2c(O)c1[C@H]1C[C@@H](c2ccc(-c3ccc(Br)cc3)cc2)Cc2ccccc21 (relative stereo) [Isomers A and B, reference compound]
Ans: 147 ng/g

Q: # repeat for O=c1oc2ccccc2c(O)c1[C@@H]1C[C@@H](c2ccc(-c3ccc(Br)cc3)cc2)Cc2ccccc21 (relative stereo) [Isomers C and D]
Ans: 52 ng/g

###

experiment: Selective depuration of isomer pairs from vole tissue, Example 4; type: in vivo, meadow voles (Microtus penusylvanicus); conditions: vole, tissue, po; 5 days after dosing; 10 ppm pellets, 0.54 mg/kg of A-D mixture consumed; read-out: Amount of isomer pair recovered from the tissue
value-kind: concentration at 120 h (ng/g)
Dear colleague, please return just the value in ng/g, with no unit written.

Q: Fill blank: measured concentration at 120 h of the compound O=c1oc2ccccc2c(O)c1[C@@H]1C[C@@H](c2ccc(-c3ccc(Br)cc3)cc2)Cc2ccccc21 (relative stereo) [Isomers C and D] is ____.
Ans: 5

Q: # iterate: O=c1oc2ccccc2c(O)c1[C@H]1C[C@@H](c2ccc(-c3ccc(Br)cc3)cc2)Cc2ccccc21 (relative stereo) [Isomers A and B, reference compound]
Ans: 101
